Data origin, for the record: patent US9073876B2

Test system: leukotriene pathway in human whole blood (LTB4 levels)
Assay: Human whole blood assay (LTB4)
Assay type: cell-based
Details: human whole blood diluted 1:1 in RPMI, stimulated with calcium ionophore A23187; single replicate
Method: The ability of the compounds of the present invention to treat a FLAP-mediated disease and/or disorder, or associated symptoms or complications thereof, was determined using the following procedures. Binding assay data represent the average value obtained from two different assay plates, with samples run in duplicate on each plate. Human whole blood assay data represent a single replicate on an assay plate using whole blood from at least one healthy donor. […]
Metric Name: IC50

>>> result("Oc1c(C2CCC2)ccc(-c2cnc3[nH]ccc3c2)c1F")
"1120 nM"
>>> result("Cc1cc(Oc2c(C3CCC3)ccc(-c3cnc(N)cn3)c2F)nc(N)n1")
"33.8 nM"
>>> result("Nc1cnc(-c2ccc(C3CCC3)c(OCC(O)CN3CCS(=O)(=O)CC3)c2F)cn1 (racemic)")
"718 nM"
>>> result("NC(=O)c1ccc(COc2c(C3CCC3)ccc(-c3cnc4c(c3)OCCN4)c2F)cc1")
"769 nM"

* * *

Listed compounds paired with reported IC50
Tested on: leukotriene pathway in human whole blood (LTB4 levels)
Test: Human whole blood assay (LTB4)
Assay type: cell-based
Conditions: human whole blood diluted 1:1 in RPMI, stimulated with calcium ionophore A23187; single replicate
Metric Name: IC50

>>> result("Nc1cnc(-c2ccc(C3CCC3)c(OCc3ccc(S(N)(=O)=O)cc3)c2F)cn1")
"> 10 µM"
>>> result("Nc1cnc(-c2ccc(C3CCC3)c(OCc3ccccc3-c3nnn[nH]3)c2F)cn1")
"> 10 µM"
>>> result("Nc1cnc(-c2ccc(C3CCC3)c(OCC3CCCO3)c2F)cn1 (stereo not drawn)")
"> 1 µM"

* * *

Listed compounds paired with reported IC50
Tested on: leukotriene pathway in human whole blood (LTB4 levels)
Test: Human whole blood assay (LTB4)
Assay type: cell-based
Settings: human whole blood diluted 1:1 in RPMI, stimulated with calcium ionophore A23187; single replicate
Metric Name: IC50 (nM)

>>> quantitative_result("CC(C)(C)OC(=O)NCCNc1ccnc(Oc2c(C3CCC3)ccc(-c3cnc(N)cn3)c2F)n1")
112
>>> quantitative_result("Fc1c(-c2cnc3[nH]ccc3n2)ccc(C2CCCC2)c1OCc1ccccc1")
1090
>>> quantitative_result("Cc1nccc(Oc2c(C3CCC3)ccc(-c3cnc(N)cn3)c2F)n1")
39.7
>>> quantitative_result("CCOC(=O)c1ccc(COc2c(C3CCC3)ccc(-c3cnc(N)cn3)c2F)o1")
1020
>>> quantitative_result("Nc1cnc(-c2ccc(C3CCC3)c(Oc3nccc(N4CCC5(CC4)OCCCO5)n3)c2F)cn1")
20.7
>>> quantitative_result("Cc1nc(COc2c(C3CCC3)ccc(-c3cnc(N)cn3)c2F)no1")
413
>>> quantitative_result("COc1cc(Oc2c(C3CCC3)ccc(-c3cnc(N)cn3)c2F)nc(N)n1")
40.7
>>> quantitative_result("Fc1c(-c2cnc3c(c2)OCCN3)ccc(C2CCC2)c1Oc1ncccn1")
68.4

* * *

So I've got pKi readings for human FLAP (Homo sapiens (Human)), take a look.
pKi: −log10 of the molar value. Counter-ions that a name gives are not always drawn.
Metric Name: pKi

>>> quantitative_result("CS(=O)(=O)NCCOc1c(C2CCC2)ccc(-c2cnc(N)cn2)c1F [Example 243]")
6.63
>>> quantitative_result("Nc1cnc(-c2ccc(C3CCC3)c(Oc3cc(O)ncn3)c2F)cn1 [Example 98]")
8.10
>>> quantitative_result("NCCNc1nccc(Oc2c(C3CCC3)ccc(-c3cnc(N)cn3)c2F)n1 [Example 150]")
6.75
>>> quantitative_result("CC(C)c1ccnc(Oc2c(C3CCC3)ccc(-c3cnc(N)nc3)c2F)n1 [Example 165]")
8.25
>>> quantitative_result("Nc1cnc(-c2ccc(C3CCC3)c(OCc3ccccc3)c2)cn1 [Example 217]")
5.90
>>> quantitative_result("Cc1nc(N)cc(Oc2c(C3CCC3)ccc(-c3cnc(N)cn3)c2F)n1 [Example 140, trifluoroacetate salt]")
8.89
>>> quantitative_result("Nc1cnc(-c2ccc(C3CCC3)c(Oc3ccc(C(=O)O)cn3)c2F)cn1 [Example 154]")
7.90
>>> quantitative_result("CC(C)(C)c1ccc(-c2cnc(N)cn2)cc1OCc1ccccc1 [Example 215]")
6.21
